Source: patent US9302999B2

tested on: bromegrass, downy (downy bromegrass, Bromus tectorum); experiment: Test C pre-/postemergence: bromegrass, downy; assay type: in vivo; settings: Postemergence, 250 g ai/ha; scale 0 to 100
assay-metric: Plant response rating, Bromegrass, Downy

molecule="COc1nn(-c2ccc(C(F)(F)F)cc2)nc1Cc1ccnc(C(F)F)c1 [Compound 138]" experimental_value=65
molecule="CCOc1nn(-c2ccc(F)cc2)nc1Cc1ccnc(C(F)(F)F)c1 [Compound 196]" experimental_value=80
molecule="Fc1ccc(-n2nc(Cc3ccnc(C(F)(F)F)c3)c(OC(F)F)n2)cc1 [Compound 25]" experimental_value=10
molecule="FC(F)(F)c1ccc(-n2nc(Cl)c(Cc3ccnc(C(F)(F)F)c3)n2)cc1 [Compound 28]" experimental_value=35
